test-name: in vivo
Parameters: species or system mice
stated-conditions: male, NODSCID 1L2RγKO, mouse, iv, total radioactivity, Pancreas uptake
readout-kind: tissue uptake at 1 h (%ID/g)

1. O=C(O)CCC[C@H](NC(=O)N[C@@H](CCCCNC(=O)[C@H](Cc1c2ccccc2cc2ccccc12)NC(=O)[C@H]1CC[C@H](CNC(=O)[C@H](CCCCNC(=O)CN2CCN(CC(=O)O)CCN(CC(=O)O)CCN(CC(=O)O)CC2)NC(=O)CNC(=O)CCCc2ccc(Cl)cc2)CC1)C(=O)O)C(=O)O [177Lu-HTK03153, metal not drawn] : 2.17
2. COc1ccc(CCCC(=O)NCC(=O)N[C@@H](CCCCNC(=O)CN2CCN(CC(=O)O)CCN(CC(=O)O)CCN(CC(=O)O)CC2)C(=O)NC[C@H]2CC[C@H](C(=O)N[C@@H](Cc3c4ccccc4cc4ccccc34)C(=O)NCCCC[C@H](NC(=O)N[C@@H](CSCC(=O)O)C(=O)O)C(=O)O)CC2)cc1 [177Lu-HTK04048, metal not drawn] : 1.7
3. COc1ccc(CCCC(=O)NCC(=O)N[C@@H](CCCCNC(=O)CN2CCN(CC(=O)O)CCN(CC(=O)O)CCN(CC(=O)O)CC2)C(=O)NC[C@H]2CC[C@H](C(=O)N[C@@H](Cc3c4ccccc4cc4ccccc34)C(=O)NCCCC[C@H](NC(=O)N[C@@H](COCC(=O)O)C(=O)O)C(=O)O)CC2)cc1 [177Lu-HTK04028, metal not drawn] : 1.53
4. COc1ccc(CCCC(=O)NCC(=O)N[C@@H](CCCCNC(=O)CN2CCN(CC(=O)O)CCN(CC(=O)O)CCN(CC(=O)O)CC2)C(=O)NC[C@H]2CC[C@H](C(=O)N[C@@H](Cc3c4ccccc4cc4ccccc34)C(=O)NCCCC[C@H](NC(=O)N[C@@H](CCCC(=O)O)C(=O)O)C(=O)O)CC2)cc1 [177Lu-HTK03170, metal not drawn] : 1.41
5. O=C(O)CCC[C@H](NC(=O)N[C@@H](CCCCNC(=O)[C@H](Cc1c2ccccc2cc2ccccc12)NC(=O)[C@H]1CC[C@H](CNC(=O)CN2CCN(CC(=O)O)CCN(CC(=O)O)CCN(CC(=O)O)CC2)CC1)C(=O)O)C(=O)O [177Lu-HTK03149, metal not drawn] : 0.17

* * *

test-name: in vivo
stated-conditions: male, NODSCID 1L2RγKO, mouse, iv, total radioactivity, Lungs uptake
readout-kind: tissue uptake at 1 h (%ID/g)

1. O=C(O)CN1CCN(CC(=O)O)CCN(CC(=O)NC[C@H]2CC[C@H](C(=O)N[C@@H](Cc3c4ccccc4cc4ccccc34)C(=O)NCCCC[C@H](NC(=O)N[C@@H](C[C@@H](F)C(=O)O)C(=O)O)C(=O)O)CC2)CCN(CC(=O)O)CC1 [68Ga-HTK04033, metal not drawn] : 0.5
2. O=C(O)CN1CCN(CC(=O)O)CCN(CC(=O)NC[C@H]2CC[C@H](C(=O)N[C@@H](Cc3c4ccccc4cc4ccccc34)C(=O)NCCCC[C@H](NC(=O)N[C@@H](C[C@H](F)C(=O)O)C(=O)O)C(=O)O)CC2)CCN(CC(=O)O)CC1 [68Ga-HTK04040, metal not drawn] : 2.01

* * *

We begin with a simple list: items and their reported tissue uptake at 72 h.
test-name: in vivo
Set-up: species or system mice
stated-conditions: male, NODSCID 1L2RγKO, mouse, iv, total radioactivity, Brain uptake
readout-kind: tissue uptake at 72 h (%ID/g)

1. O=C(O)CCC[C@H](NC(=O)N[C@@H](CCCCNC(=O)[C@H](Cc1c2ccccc2cc2ccccc12)NC(=O)[C@H]1CC[C@H](CNC(=O)[C@H](CCCCNC(=O)CN2CCN(CC(=O)O)CCN(CC(=O)O)CCN(CC(=O)O)CC2)NC(=O)CNC(=O)CCCc2ccc(Cl)cc2)CC1)C(=O)O)C(=O)O [177Lu-HTK03153, metal not drawn] : 0.05
2. COc1ccc(CCCC(=O)NCC(=O)N[C@@H](CCCCNC(=O)CN2CCN(CC(=O)O)CCN(CC(=O)O)CCN(CC(=O)O)CC2)C(=O)NC[C@H]2CC[C@H](C(=O)N[C@@H](Cc3c4ccccc4cc4ccccc34)C(=O)NCCCC[C@H](NC(=O)N[C@@H](CSCC(=O)O)C(=O)O)C(=O)O)CC2)cc1 [177Lu-HTK04048, metal not drawn] : 0.01
3. COc1ccc(CCCC(=O)NCC(=O)N[C@@H](CCCCNC(=O)CN2CCN(CC(=O)O)CCN(CC(=O)O)CCN(CC(=O)O)CC2)C(=O)NC[C@H]2CC[C@H](C(=O)N[C@@H](Cc3c4ccccc4cc4ccccc34)C(=O)NCCCC[C@H](NC(=O)N[C@@H](CCCC(=O)O)C(=O)O)C(=O)O)CC2)cc1 [177Lu-HTK03170, metal not drawn] : 0.01
4. COc1ccc(CCCC(=O)NCC(=O)N[C@@H](CCCCNC(=O)CN2CCN(CC(=O)O)CCN(CC(=O)O)CCN(CC(=O)O)CC2)C(=O)NC[C@H]2CC[C@H](C(=O)N[C@@H](Cc3c4ccccc4cc4ccccc34)C(=O)NCCCC[C@H](NC(=O)N[C@@H](COCC(=O)O)C(=O)O)C(=O)O)CC2)cc1 [177Lu-HTK04028, metal not drawn] : 0.01

* * *

test-name: in vivo
Parameters: species or system mice
stated-conditions: male, NODSCID 1L2RγKO, mouse, iv, total radioactivity, Kidneys uptake
readout-kind: tissue uptake at 1 h (%ID/g)

1) COc1ccc(CCCC(=O)NCC(=O)N[C@@H](CCCCNC(=O)CN2CCN(CC(=O)O)CCN(CC(=O)O)CCN(CC(=O)O)CC2)C(=O)NC[C@H]2CC[C@H](C(=O)N[C@@H](Cc3c4ccccc4cc4ccccc34)C(=O)NCCCC[C@H](NC(=O)N[C@@H](COCC(=O)O)C(=O)O)C(=O)O)CC2)cc1 [177Lu-HTK04028, metal not drawn] : 8.3
2) COc1ccc(CCCC(=O)NCC(=O)N[C@@H](CCCCNC(=O)CN2CCN(CC(=O)O)CCN(CC(=O)O)CCN(CC(=O)O)CC2)C(=O)NC[C@H]2CC[C@H](C(=O)N[C@@H](Cc3c4ccccc4cc4ccccc34)C(=O)NCCCC[C@H](NC(=O)N[C@@H](CSCC(=O)O)C(=O)O)C(=O)O)CC2)cc1 [177Lu-HTK04048, metal not drawn] : 14.5

* * *

test-name: in vivo
Design: species or system mice
stated-conditions: male, NODSCID 1L2RγKO, mouse, iv, total radioactivity, Adrenal glands uptake
We begin with a simple list: items and their reported tissue uptake at 1 h.
readout-kind: tissue uptake at 1 h (%ID/g)

1) COc1ccc(CCCC(=O)NCC(=O)N[C@@H](CCCCNC(=O)CN2CCN(CC(=O)O)CCN(CC(=O)O)CCN(CC(=O)O)CC2)C(=O)NC[C@H]2CC[C@H](C(=O)N[C@@H](Cc3c4ccccc4cc4ccccc34)C(=O)NCCCC[C@H](NC(=O)N[C@@H](COCC(=O)O)C(=O)O)C(=O)O)CC2)cc1 [177Lu-HTK04028, metal not drawn] : 3.25
2) COc1ccc(CCCC(=O)NCC(=O)N[C@@H](CCCCNC(=O)CN2CCN(CC(=O)O)CCN(CC(=O)O)CCN(CC(=O)O)CC2)C(=O)NC[C@H]2CC[C@H](C(=O)N[C@@H](Cc3c4ccccc4cc4ccccc34)C(=O)NCCCC[C@H](NC(=O)N[C@@H](CSCC(=O)O)C(=O)O)C(=O)O)CC2)cc1 [177Lu-HTK04048, metal not drawn] : 3.95
3) COc1ccc(CCCC(=O)NCC(=O)N[C@@H](CCCCNC(=O)CN2CCN(CC(=O)O)CCN(CC(=O)O)CCN(CC(=O)O)CC2)C(=O)NC[C@H]2CC[C@H](C(=O)N[C@@H](Cc3c4ccccc4cc4ccccc34)C(=O)NCCCC[C@H](NC(=O)N[C@@H](CCCC(=O)O)C(=O)O)C(=O)O)CC2)cc1 [177Lu-HTK03170, metal not drawn] : 3.34
4) O=C(O)CCC[C@H](NC(=O)N[C@@H](CCCCNC(=O)[C@H](Cc1c2ccccc2cc2ccccc12)NC(=O)[C@H]1CC[C@H](CNC(=O)CN2CCN(CC(=O)O)CCN(CC(=O)O)CCN(CC(=O)O)CC2)CC1)C(=O)O)C(=O)O [177Lu-HTK03149, metal not drawn] : 0.35
5) O=C(O)CCC[C@H](NC(=O)N[C@@H](CCCCNC(=O)[C@H](Cc1c2ccccc2cc2ccccc12)NC(=O)[C@H]1CC[C@H](CNC(=O)[C@H](CCCCNC(=O)CN2CCN(CC(=O)O)CCN(CC(=O)O)CCN(CC(=O)O)CC2)NC(=O)CNC(=O)CCCc2ccc(Cl)cc2)CC1)C(=O)O)C(=O)O [177Lu-HTK03153, metal not drawn] : 4.52
